condition summary: 298.15 K; 101.33 kPa; Liquid
Listed here are compounds together with their documented mass density.

[
  {
    "compound": "CCCCCCCCCCCC [dodecane]",
    "units label": "kg/m3",
    "mass density": 745.38
  },
  {
    "compound": "COC(C)(C)C [2-methoxy-2-methylpropane]",
    "units label": "kg/m3",
    "mass density": 735.99
  },
  {
    "compound": "C1CCOC1 [tetrahydrofuran]",
    "units label": "kg/m3",
    "mass density": 882.09
  },
  {
    "compound": "CC1CCCO1 (centres undefined) [2-methyltetrahydrofuran]",
    "units label": "kg/m3",
    "mass density": 848.1
  }
]

Origin of the recorded values: the NIST ThermoML archive (doi:10.1016/j.jct.2004.12.005)
